- STUDY_TARGET: Wee1 (h) (Homo sapiens)
- Sequence (P30291 whole entry): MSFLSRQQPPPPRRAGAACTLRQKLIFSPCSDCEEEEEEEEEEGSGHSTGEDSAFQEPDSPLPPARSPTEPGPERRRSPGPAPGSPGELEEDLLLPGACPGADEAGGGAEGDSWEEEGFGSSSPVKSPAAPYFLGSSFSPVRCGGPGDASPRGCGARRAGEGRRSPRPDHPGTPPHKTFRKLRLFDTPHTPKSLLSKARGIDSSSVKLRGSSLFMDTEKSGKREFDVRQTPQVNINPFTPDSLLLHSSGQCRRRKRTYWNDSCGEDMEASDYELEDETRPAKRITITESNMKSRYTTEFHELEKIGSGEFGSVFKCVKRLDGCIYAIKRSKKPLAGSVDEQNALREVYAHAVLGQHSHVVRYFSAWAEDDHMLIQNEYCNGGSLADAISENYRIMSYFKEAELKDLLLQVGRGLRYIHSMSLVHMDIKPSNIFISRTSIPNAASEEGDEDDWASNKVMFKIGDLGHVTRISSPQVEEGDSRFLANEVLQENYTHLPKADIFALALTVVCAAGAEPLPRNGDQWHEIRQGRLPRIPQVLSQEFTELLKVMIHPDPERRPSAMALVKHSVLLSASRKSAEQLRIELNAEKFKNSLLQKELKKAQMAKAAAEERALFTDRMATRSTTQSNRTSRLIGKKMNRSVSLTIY
- EXPERIMENTAL_DETAILS: Wee1 kinase (h) detection method, [γ-33P]-ATP filter assay
- Assay type: biochemical
- ASSAY_SETUP: C 1 μm compound
MEASUREMENT_KIND: Inh. (%) of Wee1 kinase enzyme activity

MOL: CN1CCN(c2c(Cl)cc(Nc3ncc4c(n3)N3CCN=C3N(c3c(F)cccc3Cl)C4=O)cc2Cl)CC1
RESULT: 91%

MOL: CN1CCN(Cc2ccc(Nc3ncc4c(n3)N3CCN=C3N(c3c(F)cccc3Cl)C4=O)cc2)CC1
RESULT: 93%

MOL: CN1CCC(c2ccc(Nc3ncc4c(n3)N3CCN=C3N(c3c(F)cccc3Cl)C4=O)cc2)CC1
RESULT: 98%

MOL: COc1cc(Nc2ncc3c(n2)N2CCN=C2N(c2c(F)cccc2Cl)C3=O)cc(F)c1N1CCN(C)CC1
RESULT: 92%

MOL: Cc1cc(Nc2ncc3c(n2)N2CCN=C2N(c2c(F)cccc2Cl)C3=O)cc(C)c1N1CCN(C)CC1
RESULT: 90%

MOL: COc1cc(Nc2ncc3c(n2)N2CCN=C2N(c2c(Cl)cccc2Cl)C3=O)cc(Br)c1N1CCN(C)CC1
RESULT: 91%

MOL: CC(C)N1[C@H](C)CN(c2ccc(Nc3ncc4c(n3)N3CCN=C3N(c3c(Cl)cccc3Cl)C4=O)cc2)C[C@@H]1C
RESULT: 98%

MOL: O=C1c2cnc(Nc3ccc(N4CCOCC4)cc3)nc2N2CCN=C2N1c1c(Cl)cccc1Cl
RESULT: 95%

MOL: C[C@@H]1CN(c2ccc(Nc3ncc4c(n3)N3CCN=C3N(c3c(F)cccc3Cl)C4=O)c(Cl)c2)C[C@H](C)N1C
RESULT: 28%

MOL: Cc1cccc(C)c1N1C(=O)c2cnc(Nc3ccc4c(c3)CN(C)CC4)nc2N2CCN=C21
RESULT: 89%

MOL: Cc1cc(Nc2ncc3c(n2)N2CCN=C2N(c2c(F)cccc2Cl)C3=O)cc(F)c1N1CCC(N(C)C)CC1
RESULT: 98%

MOL: C[C@@H]1CN(c2ccc(Nc3ncc4c(n3)N3CCN=C3N(c3c(Cl)cccc3Cl)C4=O)cc2C(F)(F)F)C[C@H](C)N1C
RESULT: 98%

MOL: CN1CCN(c2ccc(Nc3ncc4c(n3)N3CCN=C3N(c3c(Cl)cccc3Cl)C4=O)cc2Br)CC1
RESULT: 97%

MOL: CN1Cc2cc(Nc3ncc4c(n3)N3CCN=C3N(c3c(F)cccc3Cl)C4=O)ccc2C2(CC2)C1
RESULT: 98%

MOL: CN1CCC(N(C)c2ccc(Nc3ncc4c(n3)N3CCN=C3N(c3c(F)cccc3Cl)C4=O)cc2)CC1
RESULT: 96%

MOL: CN1CCC(Oc2ccc(Nc3ncc4c(n3)N3CCN=C3N(c3c(F)cccc3Cl)C4=O)cc2)CC1
RESULT: 95%

MOL: Cc1cc(Nc2ncc3c(n2)N2CCN=C2N(c2c(Cl)cccc2Cl)C3=O)ccc1N1CCN(C(C)C)CC1
RESULT: 97%

MOL: CN1CCn2nc(Nc3ncc4c(n3)N3CCN=C3N(c3c(F)cccc3Cl)C4=O)cc2C1
RESULT: 49%

MOL: Cc1cc(Nc2ncc3c(n2)N2CCN=C2N(c2c(Cl)cccc2Cl)C3=O)ccc1N1CCN(C)CC1
RESULT: 100%

MOL: C[C@@H]1CN(c2ccc(Nc3ncc4c(n3)N3CCN=C3N(c3c(F)cccc3Cl)C4=O)cc2)C[C@H](C)O1
RESULT: 94%

MOL: CN1CCN(c2ccc(Nc3ncc4c(n3)N3CCN=C3N(c3c(F)cccc3Cl)C4=O)cc2C(F)(F)F)CC1
RESULT: 91%

MOL: C[C@@H]1CN(c2ccc(Nc3ncc4c(n3)N3CCN=C3N(c3c(Cl)cccc3Cl)C4=O)c(Cl)c2)C[C@H](C)N1C
RESULT: 24%

MOL: CN1CCN(c2ccc(Nc3ncc4c(n3)N3CCN=C3N(c3c(Cl)cccc3Br)C4=O)cc2Cl)CC1
RESULT: 97%

MOL: CN1CCC(Nc2ccc(Nc3ncc4c(n3)N3CCN=C3N(c3c(F)cccc3Cl)C4=O)cc2)CC1
RESULT: 97%

MOL: CN1CCN(c2ccc(Nc3ncc4c(n3)N3CCN=C3N(c3c(F)cccc3Cl)C4=O)cn2)CC1
RESULT: 89%

MOL: Cc1cc(Nc2ncc3c(n2)N2CCN=C2N(c2c(F)cccc2Cl)C3=O)ccc1N1C[C@@H](C)N(C)[C@@H](C)C1
RESULT: 96%

MOL: CN1CCN(c2ccc(Nc3ncc4c(n3)N3CCN=C3N(c3c(F)cccc3Cl)C4=O)c(C(F)(F)F)c2)CC1
RESULT: 4%

MOL: CN(C)CCCN(C)c1ccc(Nc2ncc3c(n2)N2CCN=C2N(c2c(F)cccc2Cl)C3=O)cc1
RESULT: 96%

MOL: COc1cc(Nc2ncc3c(n2)N2CCN=C2N(c2c(Cl)cccc2Cl)C3=O)ccc1N1CCN(C)CC1
RESULT: 95%
